System: HEK-293T
Assay: Multiplex assay against HEK293T
Type: toxicity, cell-based
Details: human, 48 h, 10 µM, compound concentration 10 uM, replicate 1
measure_name: Population Normal (%)

- compound: "COCCn1c(C)c(C)s/c1=N\\C(=O)C1C(C)(C)C1(C)C"
  measure_name: "Population Normal (%)"
  result: "97%"
- compound: "CC(F)(F)CN1CCOc2c(nn(-c3ccccc3Cl)c2-c2ccc(Cl)cc2)C1=O"
  measure_name: "Population Normal (%)"
  result: "93%"
- compound: "O=C(NCCNCC(O)COc1ccc(O)cc1)N1CCOCC1.O=C(NCCNCC(O)COc1ccc(O)cc1)N1CCOCC1.O=C(O)/C=C/C(=O)O (stereo not drawn) [XAMOTEROL FUMARATE]"
  measure_name: "Population Normal (%)"
  result: "99%"
- compound: "COc1cc(OC2CCN(C(C)=O)CC2)ccc1C(=O)N1CCC(N2C(=O)OCc3ccccc32)CC1"
  measure_name: "Population Normal (%)"
  result: "95%"
- compound: "COc1cc(C(=O)N2CC[C@@H](O)[C@@H](N)C2)cc2nc(-c3cc4ccccc4n3CC3CC3)n(C)c12.Cl"
  measure_name: "Population Normal (%)"
  result: "81%"
- compound: "C[C@@H]1CC(=O)Nc2cccc(-c3ccc4c(c3)c(-c3cnn(C)c3)nn4C)c2N1"
  measure_name: "Population Normal (%)"
  result: "95%"
- compound: "O=C(O)CCC/C=C\\CC1C(O)CC(O)C1/C=C/C(O)COc1cccc(Cl)c1 (stereo not drawn)"
  measure_name: "Population Normal (%)"
  result: "92%"
- compound: "CCc1nn2c(C)cc(C)nc2c1Cc1ccc(-c2nnc(C3CCNCC3)o2)cc1"
  measure_name: "Population Normal (%)"
  result: "95%"
- compound: "COc1c(Nc2ccc(S(C)(=O)=O)nc2C)ncnc1OC1CCN(C(=O)OC(C)C)CC1"
  measure_name: "Population Normal (%)"
  result: "95%"
- compound: "Cc1cc(-c2ccc3c(c2)CC[C@H]3N2CC3(CCN(C(=O)Cc4cn5cc(C)sc5n4)CC3)C2)ncn1"
  measure_name: "Population Normal (%)"
  result: "97%"
- compound: "Cl.Cl.OCCOCCN1CCN(C(c2ccccc2)c2ccc(Cl)cc2)CC1 (stereo not drawn) [HYDROXYZINE HYDROCHLORIDE]"
  measure_name: "Population Normal (%)"
  result: "93%"
- compound: "S=C(NCCCc1c[nH]cn1)NCCCN(Cc1ccc(Cl)c(Cl)c1)c1ccc(Br)cn1"
  measure_name: "Population Normal (%)"
  result: "24%"
- compound: "Cc1sc2c(c1C)C(c1ccc(Cl)cc1)=N[C@H](CC(=O)OC(C)(C)C)c1nnc(C)n1-2"
  measure_name: "Population Normal (%)"
  result: "96%"
- compound: "Cc1nn(C)c2nc(NNC(=O)Nc3cc(Cl)nc(Cl)c3)cc(C(C)C)c12"
  measure_name: "Population Normal (%)"
  result: "96%"
- compound: "Cc1cc(NC(=O)NCCN2CCC(O)(Cc3ccccc3)CC2)c2ccccc2n1"
  measure_name: "Population Normal (%)"
  result: "94%"
- compound: "COC(c1ccccc1)(c1ccccc1)[C@H](Oc1nc(C)cc(C)n1)C(=O)O"
  measure_name: "Population Normal (%)"
  result: "97%"
- compound: "CN1CCC(C(=O)c2cccc(NC(=O)c3c(F)cc(F)cc3F)n2)CC1"
  measure_name: "Population Normal (%)"
  result: "95%"
- compound: "OCCCNc1cc(-c2ccnc(Nc3cccc(Cl)c3)n2)ccn1"
  measure_name: "Population Normal (%)"
  result: "42%"

====

Measured Population Apoptotic (%) of individual entries
Tested on: Fibroblast
Assay: Multiplex assay against human fibroblast
Assay type: toxicity, cell-based
Details: 12 h, 1 µM, compound concentration 1 uM, replicate 2

- compound: "Cc1cc(O)c(-c2ccc([C@@H](C)CN(C)C)cc2)c2c1[nH]c(=O)c1sccc12"
  experimental_target: "Fibroblast"
  Population Apoptotic (%): "50%"
- compound: "COc1cc(Nc2ncc3c(n2)-c2ccc(Cl)cc2C(c2c(F)cccc2OC)=NC3)ccc1C(=O)O [ALISERTIB]"
  experimental_target: "Fibroblast"
  Population Apoptotic (%): "42%"
- compound: "Cc1nn(C)c2nc(NNC(=O)Nc3cc(Cl)nc(Cl)c3)cc(C(C)C)c12"
  experimental_target: "Fibroblast"
  Population Apoptotic (%): "37%"
- compound: "O=C(O)CCC/C=C\\CC1C(O)CC(O)C1/C=C/C(O)COc1cccc(Cl)c1 (configuration not stated) [CLOPROSTENOL]"
  experimental_target: "Fibroblast"
  Population Apoptotic (%): "20%"
- compound: "CCCCCCNC(=O)Nc1ccc(S(=O)(=O)Nc2ccc(CCNC[C@H](O)COc3ccc(O)cc3)cc2)cc1 [L-755507]"
  experimental_target: "Fibroblast"
  Population Apoptotic (%): "46%"
- compound: "Nc1nc(CC(=O)Nc2ccc(CCNC[C@H](O)c3ccccc3)cc2)cs1 [MIRABEGRON]"
  experimental_target: "Fibroblast"
  Population Apoptotic (%): "31%"
- compound: "Cc1c(Cc2ccc3ccccc3n2)c2cc(F)ccc2n1CC(=O)O [TIMAPIPRANT]"
  experimental_target: "Fibroblast"
  Population Apoptotic (%): "33%"
- compound: "CC(C)C[C@H](CO)Nc1nc(S[C@@H](C)c2ccccc2)nc2nc(N)sc12 [AZD-8797]"
  experimental_target: "Fibroblast"
  Population Apoptotic (%): "31%"
- compound: "Nc1nc(-c2ccco2)c2cnn(Cc3ccccc3F)c2n1"
  experimental_target: "Fibroblast"
  Population Apoptotic (%): "45%"
- compound: "CC(C)(O)C(=O)N1CCN(c2ccc(C(F)(F)F)c(C3=C(c4c[nH]c5ccccc45)C(=O)NC3=O)c2)CC1"
  experimental_target: "Fibroblast"
  Population Apoptotic (%): "32%"
- compound: "Cc1ccc(OCC(O)C(C)NC(C)C)c2c1CCC2.Cl (configuration not stated)"
  experimental_target: "Fibroblast"
  Population Apoptotic (%): "28%"
- compound: "COc1cc2nc(N3CCN(C(=O)c4ccco4)CC3)nc(N)c2cc1OC.Cl [PRAZOSIN HYDROCHLORIDE]"
  experimental_target: "Fibroblast"
  Population Apoptotic (%): "49%"
- compound: "O=C(NCCNCC(O)COc1ccc(O)cc1)N1CCOCC1.O=C(NCCNCC(O)COc1ccc(O)cc1)N1CCOCC1.O=C(O)/C=C/C(=O)O (configuration not stated) [XAMOTEROL FUMARATE]"
  experimental_target: "Fibroblast"
  Population Apoptotic (%): "43%"
- compound: "COCCn1c(C)c(C)s/c1=N\\C(=O)C1C(C)(C)C1(C)C"
  experimental_target: "Fibroblast"
  Population Apoptotic (%): "40%"
- compound: "C=CCN1C[C@H](C(=O)N(CCCN(C)C)C(=O)NCC)C[C@@H]2c3cccc4[nH]cc(c34)C[C@H]21 [CABERGOLINE]"
  experimental_target: "Fibroblast"
  Population Apoptotic (%): "35%"
- compound: "CSc1nc(NC2CCCC2)c([N+](=O)[O-])c(NC2CCCC2)n1 [GS-39783]"
  experimental_target: "Fibroblast"
  Population Apoptotic (%): "39%"
- compound: "CN1CCN(c2ccc(Nc3c4ccccc4nc4ccccc34)cc2)CC1.Cl.Cl.O"
  experimental_target: "Fibroblast"
  Population Apoptotic (%): "44%"

====

System: U2OS
Assay: Multiplex assay against U2OS
Assay type: toxicity, cell-based
Conditions: human, 24 h, 10 µM, compound concentration 10 uM, replicate 1
Non-standard residues stand in square brackets, D forms with d. Residues, ends and D or L forms follow the SMILES beside them.

- compound: "COCCCN1CCC(NC(=O)c2cc(Cl)c(N)c3c2OCC3)CC1 [PRUCALOPRIDE]"
  Population Normal (%): "95%"
- compound: "OCCCNc1cc(-c2ccnc(Nc3cccc(Cl)c3)n2)ccn1"
  Population Normal (%): "88%"
- compound: "CCCCC[C@H](O)/C=C/[C@H]1[C@H](O)CC(=O)[C@@H]1CCCCCCC(=O)O"
  Population Normal (%): "98%"
- compound: "COc1cc(Nc2ncc3c(n2)-c2ccc(Cl)cc2C(c2c(F)cccc2OC)=NC3)ccc1C(=O)O"
  Population Normal (%): "95%"
- compound: "CN1CCN2c3ccccc3Cc3ccccc3C2C1.Cl (configuration not stated) [MIANSERIN HYDROCHLORIDE]"
  Population Normal (%): "98%"
- compound: "C[C@@H]1CC(=O)Nc2cccc(-c3ccc4c(c3)c(-c3cnn(C)c3)nn4C)c2N1"
  Population Normal (%): "95%"
- compound: "COCCn1c(C)c(C)s/c1=N\\C(=O)C1C(C)(C)C1(C)C"
  Population Normal (%): "98%"
- compound: "Cc1sc2c(c1C)C(c1ccc(Cl)cc1)=N[C@H](CC(=O)OC(C)(C)C)c1nnc(C)n1-2"
  Population Normal (%): "97%"
- compound: "Cc1cc(-c2ccc3c(c2)CC[C@H]3N2CC3(CCN(C(=O)Cc4cn5cc(C)sc5n4)CC3)C2)ncn1"
  Population Normal (%): "97%"
- compound: "CCCCCCNC(=O)Nc1ccc(S(=O)(=O)Nc2ccc(CCNC[C@H](O)COc3ccc(O)cc3)cc2)cc1"
  Population Normal (%): "97%"
- compound: "COC(c1ccccc1)(c1ccccc1)[C@H](Oc1nc(C)cc(C)n1)C(=O)O"
  Population Normal (%): "98%"
- compound: "Nc1nc(CC(=O)Nc2ccc(CCNC[C@H](O)c3ccccc3)cc2)cs1"
  Population Normal (%): "98%"
- compound: "COc1cc(OC2CCN(C(C)=O)CC2)ccc1C(=O)N1CCC(N2C(=O)OCc3ccccc32)CC1"
  Population Normal (%): "94%"
- compound: "S=C(NCCCc1c[nH]cn1)NCCCN(Cc1ccc(Cl)c(Cl)c1)c1ccc(Br)cn1"
  Population Normal (%): "94%"
- compound: "COc1ccc2c(c1OCc1ccccc1)C[C@@H](C(=O)O)N(C(=O)C(c1ccccc1)c1ccccc1)C2"
  Population Normal (%): "98%"
- compound: "Cc1cc(NC(=O)NCCN2CCC(O)(Cc3ccccc3)CC2)c2ccccc2n1"
  Population Normal (%): "96%"
- compound: "N[C@](CC1c2ccccc2Oc2ccccc21)(C(=O)O)[C@H]1C[C@@H]1C(=O)O"
  Population Normal (%): "96%"
- compound: "CC(C)C[C@@H]1NC(=O)[C@@H](C(C)C)NC(=O)[C@@H]2CCCN2C(=O)[C@@H](CC(=O)O)NC(=O)[C@@H](Cc2c[nH]c3ccccc23)NC1=O [BQ-123] (cyclo(L[dW][dD]P[dV]))"
  Population Normal (%): "97%"
- compound: "O=C(O)CCC/C=C\\CC1C(O)CC(O)C1/C=C/C(O)COc1cccc(Cl)c1 (configuration not stated)"
  Population Normal (%): "97%"
- compound: "CCC(=O)OCC(=O)[C@@]1(OC(=O)CC)[C@@H](C)C[C@H]2[C@@H]3CCC4=CC(=O)C=C[C@]4(C)[C@@]3(Cl)[C@@H](O)C[C@@]21C [BECLOMETHASONE DIPROPIONATE]"
  Population Normal (%): "96%"
- compound: "CN1CCN(c2ccc(Nc3c4ccccc4nc4ccccc34)cc2)CC1.Cl.Cl.O"
  Population Normal (%): "95%"
- compound: "Cc1cc(=O)n(C)c2cc(N3C(=O)CC[C@H](NS(=O)(=O)CC(C)C)[C@H]3c3ccc(Cl)cc3)ccc12"
  Population Normal (%): "94%"
- compound: "COc1cc2nc(N3CCN(C(=O)COc4c(OC)cccc4C(C)C)CC3)nc(N)c2cc1OC.Cl.Cl"
  Population Normal (%): "90%"
- compound: "CC(C)(C)c1ccc(CSc2cnn(C(C)(C)C)c(=O)c2Cl)cc1"
  Population Normal (%): "97%"
- compound: "CC(C)C[C@H](CO)Nc1nc(S[C@@H](C)c2ccccc2)nc2nc(N)sc12"
  Population Normal (%): "96%"
- compound: "COc1cc2nc(N3CCN(C(=O)c4ccco4)CC3)nc(N)c2cc1OC.Cl [PRAZOSIN HYDROCHLORIDE]"
  Population Normal (%): "97%"
- compound: "Cl.Cl.OCCOCCN1CCN(C(c2ccccc2)c2ccc(Cl)cc2)CC1 (configuration not stated) [HYDROXYZINE HYDROCHLORIDE]"
  Population Normal (%): "97%"
- compound: "Cc1ccc(OCC(O)C(C)NC(C)C)c2c1CCC2.Cl (configuration not stated)"
  Population Normal (%): "96%"
- compound: "CN(C)C/C=C/C(=O)Nc1ccc(C(=O)N2CCCC(Nc3ncc(Cl)c(-c4c[nH]c5ccccc45)n3)C2)cc1 (configuration not stated)"
  Population Normal (%): "90%"
- compound: "CCn1c(-c2nc3cc(C(=O)N4CCCC(N)C4)ccc3n2C)cc2ccccc21.Cl (configuration not stated)"
  Population Normal (%): "97%"
- compound: "CN1C[C@H](C(=O)N[C@]2(C)O[C@@]3(O)[C@@H]4CCCN4C(=O)[C@H](Cc4ccccc4)N3C2=O)C[C@@H]2c3cccc4[nH]cc(c34)C[C@H]21.CS(=O)(=O)O [DIHYDROERGOTAMINE MESYLATE]"
  Population Normal (%): "98%"
- compound: "C[C@H](NC(=O)CNC(=O)c1cccc(Cl)c1)c1ccccc1"
  Population Normal (%): "98%"
